Tested on: SW480 cells
Test: MTT cytotoxicity assay, 72 h
Format: cell-based, human
Details: SW480, p53 mt; read-out: IC50 (mean ± SE) after 72 h continuous exposure
Let's look at some compounds and their measured IC50.
readout_kind: IC50 (µM)

1. O=C1OC(O)C2C3CCC(O3)C12 (centres unmarked) [MK-4]
88
2. O=C1OC(=O)C2C3C=CC(O3)C12 (centres unmarked) [MK-2]
155
3. COC1OC(=O)C2C3CCC(O3)C12 (centres unmarked) [MK-5]
247
4. O=C(O)C1C2C=CC(O2)C1C(=O)Oc1ccccc1 (centres unmarked) [MK-3]
444
